# pIC50 values compiled below
Target: UniProt:P27338
Sequence (P27338 whole entry): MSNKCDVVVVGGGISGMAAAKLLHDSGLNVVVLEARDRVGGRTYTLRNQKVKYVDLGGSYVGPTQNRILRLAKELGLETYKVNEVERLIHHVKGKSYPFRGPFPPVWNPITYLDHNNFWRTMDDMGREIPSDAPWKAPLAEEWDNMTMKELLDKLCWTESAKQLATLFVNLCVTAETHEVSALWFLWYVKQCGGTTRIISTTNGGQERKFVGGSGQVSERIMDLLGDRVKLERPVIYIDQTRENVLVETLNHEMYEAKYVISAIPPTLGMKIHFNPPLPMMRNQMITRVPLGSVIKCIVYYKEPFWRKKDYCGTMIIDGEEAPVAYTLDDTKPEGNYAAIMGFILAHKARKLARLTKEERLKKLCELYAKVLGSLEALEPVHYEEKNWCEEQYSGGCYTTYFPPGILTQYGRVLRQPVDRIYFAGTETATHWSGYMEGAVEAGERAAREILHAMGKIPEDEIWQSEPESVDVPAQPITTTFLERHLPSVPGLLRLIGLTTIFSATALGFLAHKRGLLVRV
Experiment: Inhibition of recombinant human MAO-B expressed in baculovirus-infected insect cells using p-tyramine as substrate incubated for 30 mins prior to substrate addition measured for 45 mins by amplex red reagent-based microplate fluorescence reader analysis
pIC50: −log10 of the molar value.

smiles.text: O=C(CCCc1ccc(Cl)c(Cl)c1)Nc1nc2ccccc2c(=O)s1
value.modifier: =
pIC50: 5.46
//
smiles.text: COc1cccc(CCCC(=O)Nc2nc3ccccc3c(=O)s2)c1
value.modifier: =
pIC50: 6.41
//
smiles.text: O=C(CCCc1ccccc1)Nc1nc2cc(Cl)ccc2c(=O)s1
value.modifier: =
pIC50: 7.12
//
smiles.text: O=C(CCCc1ccccc1)Nc1nc2ccc(Cl)cc2c(=O)s1
value.modifier: <
pIC50: 5.00
//
smiles.text: O=C(CCc1ccc(Cl)c(Cl)c1)Nc1nc2ccccc2c(=O)s1
value.modifier: <
pIC50: 5.00
//
smiles.text: O=C(CCCc1ccccc1)Nc1nc2ccccc2c(=O)s1
value.modifier: =
pIC50: 7.46
//
smiles.text: O=C(CCc1ccccc1F)Nc1nc2ccccc2c(=O)s1
value.modifier: =
pIC50: 7.95
//
smiles.text: O=C(C/C=C/c1ccccc1)Nc1nc2ccccc2c(=O)s1
value.modifier: =
pIC50: 7.40
//
smiles.text: O=C(CCCc1ccccc1)Nc1nc2sccc2c(=O)s1
value.modifier: =
pIC50: 7.16
//
smiles.text: O=C(/C=C/c1cccc(Cl)c1)Nc1nc2ccccc2c(=O)s1
value.modifier: =
pIC50: 7.03
//
smiles.text: O=C(C/C=C/c1cccc(Cl)c1)Nc1nc2ccccc2c(=O)s1
value.modifier: <
pIC50: 6.00
//
smiles.text: Cc1ccc2nc(NC(=O)CCCc3ccccc3)sc(=O)c2c1
value.modifier: =
pIC50: 7.03
//
smiles.text: O=C(Nc1nc2ccccc2c(=O)s1)c1ccc(C(=O)N2CCN(Cc3cccc(Cl)c3)CC2)cc1
value.modifier: <
pIC50: 5.00
//
smiles.text: O=C(Nc1nc2ccccc2c(=O)s1)c1ccc(C(=O)N2CCN(Cc3ccccc3)CC2)cc1
value.modifier: <
pIC50: 5.00
//
smiles.text: COc1cccc(/C=C/C(=O)Nc2nc3ccccc3c(=O)s2)c1
value.modifier: =
pIC50: 6.33
//
smiles.text: COc1cccc(CCC(=O)Nc2nc3ccccc3c(=O)s2)c1
value.modifier: =
pIC50: 7.02
//
smiles.text: O=C(CCCc1cccc(Cl)c1)Nc1nc2ccccc2c(=O)s1
value.modifier: <
pIC50: 6.00
//
smiles.text: O=C(Nc1nc2ccccc2c(=O)s1)c1ccc(C(=O)N2CCN(Cc3ccc(Cl)cc3)CC2)cc1
value.modifier: <
pIC50: 5.00
//
smiles.text: O=C(CCCc1ccccc1)Nc1nc2ccsc2c(=O)s1
value.modifier: =
pIC50: 6.69
//
smiles.text: Cc1sc2nc(NC(=O)CCCc3ccccc3)sc(=O)c2c1C
value.modifier: =
pIC50: 8.01
//
smiles.text: COc1cccc(/C=C/CC(=O)Nc2nc3ccccc3c(=O)s2)c1
value.modifier: =
pIC50: 6.62
//
smiles.text: COc1cccc(C#CC(=O)Nc2nc3ccccc3c(=O)s2)c1
value.modifier: =
pIC50: 7.36
//
smiles.text: O=C(COc1cccc(Cl)c1)Nc1nc2ccccc2c(=O)s1
value.modifier: =
pIC50: 8.79

---

target: UniProt P27338; experiment: Inhibition of recombinant human MAO-B expressed in baculovirus-infected insect cells using p-tyramine as substrate incubated for 30 mins prior to substrate addition measured for 45 mins by amplex red reagent-based microplate fluorescence reader analysis
# IC50 values compiled below
readout.type: IC50

smiles.text: O=C(CCCc1ccccc1)Nc1nc2ccc(Br)cc2c(=O)s1
assay.system: UniProt P27338
readout.type: IC50
assay.result: > 10000 nM

smiles.text: O=C(Nc1nc2ccccc2c(=O)s1)c1ccc(C(=O)N2CCN(Cc3ccccc3Cl)CC2)cc1
assay.system: UniProt P27338
readout.type: IC50
assay.result: > 10000 nM

smiles.text: O=C(CCc1ccccc1)Nc1nc2ccccc2c(=O)s1
assay.system: UniProt P27338
readout.type: IC50
assay.result: 17.6 nM

smiles.text: O=C(C/C=C/c1ccc(Cl)c(Cl)c1)Nc1nc2ccccc2c(=O)s1
assay.system: UniProt P27338
readout.type: IC50
assay.result: > 10000 nM

smiles.text: CN(C(=O)CCCc1ccccc1)c1nc2ccccc2c(=O)s1
assay.system: UniProt P27338
readout.type: IC50
assay.result: 53.1 nM

smiles.text: O=C(CCc1ccccc1Br)Nc1nc2ccccc2c(=O)s1
assay.system: UniProt P27338
readout.type: IC50
assay.result: 2.09 nM

---

molecular target: Adenosine receptor A2a (Homo sapiens); assay: Displacement of [3H]MSX2 from human recombinant adenosine A2A receptor expressed in CHO cells after 30 mins by liquid scintillation counting analysis
Sequence (P29274 whole entry): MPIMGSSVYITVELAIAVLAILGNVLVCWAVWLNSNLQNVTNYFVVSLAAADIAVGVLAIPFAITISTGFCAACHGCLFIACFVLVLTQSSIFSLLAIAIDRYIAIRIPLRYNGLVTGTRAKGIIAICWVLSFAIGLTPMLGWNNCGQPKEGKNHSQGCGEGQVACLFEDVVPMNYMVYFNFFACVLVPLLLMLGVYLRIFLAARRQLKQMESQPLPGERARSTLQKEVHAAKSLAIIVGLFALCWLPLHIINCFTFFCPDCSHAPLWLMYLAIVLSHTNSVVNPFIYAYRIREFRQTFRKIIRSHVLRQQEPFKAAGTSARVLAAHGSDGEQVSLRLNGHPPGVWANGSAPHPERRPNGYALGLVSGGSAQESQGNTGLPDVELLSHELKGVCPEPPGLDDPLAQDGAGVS
pKi: −log10 of the molar value.
# pKi values compiled below

smiles.text: O=C(/C=C/c1cccc(Cl)c1)Nc1nc2ccccc2c(=O)s1
value.modifier: <
pKi: 6.00
--
smiles.text: COc1cccc(C#CC(=O)Nc2nc3ccccc3c(=O)s2)c1
value.modifier: ≤
pKi: 6.00
--
smiles.text: COc1cccc(/C=C/CC(=O)Nc2nc3ccccc3c(=O)s2)c1
value.modifier: =
pKi: 7.04
--
smiles.text: O=C(C/C=C/c1ccccc1)Nc1nc2ccccc2c(=O)s1
value.modifier: =
pKi: 6.93
--
smiles.text: COc1cccc(CCCC(=O)Nc2nc3ccccc3c(=O)s2)c1
value.modifier: =
pKi: 6.94
--
smiles.text: O=C(CCCc1ccccc1)Nc1nc2ccccc2c(=O)s1
value.modifier: =
pKi: 7.40
--
smiles.text: COc1cccc(CCC(=O)Nc2nc3ccccc3c(=O)s2)c1
value.modifier: =
pKi: 7.19
--
smiles.text: O=C(CCc1ccccc1)Nc1nc2ccccc2c(=O)s1
value.modifier: =
pKi: 7.09
--
smiles.text: O=C(Nc1nc2ccccc2c(=O)s1)c1ccc(C(=O)N2CCN(Cc3ccc(Cl)cc3)CC2)cc1
value.modifier: =
pKi: 7.35
--
smiles.text: COCCOc1ccc(N2CCN(CCn3ncc4c3nc(N)n3nc(-c5ccco5)nc43)CC2)cc1
value.modifier: =
pKi: 9.05
--
smiles.text: O=C(Nc1nc2ccccc2c(=O)s1)c1ccc(C(=O)N2CCN(Cc3ccccc3Cl)CC2)cc1
value.modifier: <
pKi: 6.00
--
smiles.text: O=C(Nc1nc2ccccc2c(=O)s1)c1ccc(C(=O)N2CCN(Cc3cccc(Cl)c3)CC2)cc1
value.modifier: =
pKi: 7.23
--
smiles.text: CN(C(=O)CCCc1ccccc1)c1nc2ccccc2c(=O)s1
value.modifier: <
pKi: 5.00
--
smiles.text: COc1cccc(/C=C/C(=O)Nc2nc3ccccc3c(=O)s2)c1
value.modifier: =
pKi: 7.20
--
smiles.text: O=C(CCCc1ccccc1)Nc1nc2sccc2c(=O)s1
value.modifier: =
pKi: 7.08

---

assay: Selectivity ratio of IC50 for MAO-B in mitochondria-enriched Sprague-Dawley rat liver fractions to IC50 for recombinant human MAO-B

smiles.text: O=C(Nc1nc2ccccc2c(=O)s1)c1ccc(C(=O)N2CCN(Cc3ccccc3Cl)CC2)cc1
Ratio IC50: 1.4
//
smiles.text: COc1cccc(/C=C/CC(=O)Nc2nc3ccccc3c(=O)s2)c1
Ratio IC50: 1.4
//
smiles.text: O=C(Nc1nc2ccccc2c(=O)s1)c1ccc(C(=O)N2CCN(Cc3ccc(Cl)cc3)CC2)cc1
Ratio IC50: 1.4
//
smiles.text: COc1cccc(CCC(=O)Nc2nc3ccccc3c(=O)s2)c1
Ratio IC50: 1.4

---

Target: Adenosine receptor A1 (Rattus norvegicus)
Sequence (P25099 whole entry): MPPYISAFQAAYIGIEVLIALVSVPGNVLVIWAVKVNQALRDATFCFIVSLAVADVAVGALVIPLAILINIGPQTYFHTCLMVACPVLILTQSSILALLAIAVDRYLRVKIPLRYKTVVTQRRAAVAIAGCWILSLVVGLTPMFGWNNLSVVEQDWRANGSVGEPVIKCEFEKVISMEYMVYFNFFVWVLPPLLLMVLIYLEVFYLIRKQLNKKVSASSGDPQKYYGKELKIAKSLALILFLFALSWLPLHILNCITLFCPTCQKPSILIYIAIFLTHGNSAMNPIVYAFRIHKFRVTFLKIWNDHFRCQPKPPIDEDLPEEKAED
readout.type: Ki (nM)

smiles.text: COCCOc1ccc(N2CCN(CCn3ncc4c3nc(N)n3nc(-c5ccco5)nc43)CC2)cc1
value.modifier: =
assay.result: 68.7
--
smiles.text: O=C(CCc1ccccc1F)Nc1nc2ccccc2c(=O)s1
value.modifier: >
assay.result: 10000
--
smiles.text: O=C(C/C=C/c1ccc(Cl)c(Cl)c1)Nc1nc2ccccc2c(=O)s1
value.modifier: ≥
assay.result: 1500
--
smiles.text: O=C(CCCc1ccccc1)Nc1nc2ccccc2c(=O)s1
value.modifier: =
assay.result: 229
--
smiles.text: O=C(CCCc1ccccc1)Nc1nc2sccc2c(=O)s1
value.modifier: =
assay.result: 35.2
--
smiles.text: O=C(/C=C/c1cccc(Cl)c1)Nc1nc2ccccc2c(=O)s1
value.modifier: ≥
assay.result: 10000
--
smiles.text: CN(C(=O)CCCc1ccccc1)c1nc2ccccc2c(=O)s1
value.modifier: >
assay.result: 10000
